// values below are reported IC50
TESTED SYSTEM: mGAT3 (Mus musculus, UniProt P31649)
Sequence (P31649 whole entry): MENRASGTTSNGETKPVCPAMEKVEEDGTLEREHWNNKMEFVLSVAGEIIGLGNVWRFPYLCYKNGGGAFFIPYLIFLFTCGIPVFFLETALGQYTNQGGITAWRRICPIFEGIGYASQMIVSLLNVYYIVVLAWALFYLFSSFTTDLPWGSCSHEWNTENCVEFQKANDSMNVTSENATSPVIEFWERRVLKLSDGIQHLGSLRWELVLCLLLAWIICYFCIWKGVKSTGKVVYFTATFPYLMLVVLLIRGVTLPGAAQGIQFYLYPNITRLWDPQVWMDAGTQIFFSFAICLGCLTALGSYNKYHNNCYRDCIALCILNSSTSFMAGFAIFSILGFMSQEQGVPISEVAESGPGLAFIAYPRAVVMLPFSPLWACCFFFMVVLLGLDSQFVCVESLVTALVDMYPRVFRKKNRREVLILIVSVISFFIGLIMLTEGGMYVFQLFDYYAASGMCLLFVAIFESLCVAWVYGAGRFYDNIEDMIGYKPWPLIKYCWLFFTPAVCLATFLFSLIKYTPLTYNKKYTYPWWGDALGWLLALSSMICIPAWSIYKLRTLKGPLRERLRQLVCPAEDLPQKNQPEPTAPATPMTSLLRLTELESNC
EXPERIMENT SUMMARY: [3H]GABA uptake assay, mGAT3
Format: cell-based
CONDITION DESCRIPTION: GABA uptake assay; read-out: mGAT3 IC50

Below are worked cases with known answers.
1. CC(C)(C)c1cccc(CNC[C@@H](O)[C@H](Cc2ccccc2)NC2c3ccccc3-c3ccccc32)c1 : 8.91 µM
2. O[C@H](CNCc1ccccc1)[C@H](Cc1ccccc1)NC1c2ccccc2-c2ccccc21 : 7.08 µM

Okay, next one:
Ask | Check mGAT3 (Mus musculus, UniProt P31649) data and give IC50 for O[C@@H](CNCC1CCCCC1)[C@H](Cc1ccccc1)NC1c2ccccc2-c2ccccc21 .
Reply | 11.5 µM

====

EXPERIMENT SUMMARY: Pharmacokinetic study after i.p. administration
Format: in vivo
CONDITION DESCRIPTION: ICR-CD1, mouse, ip; mice, 10 mg/kg i.p., plasma; read-out: λz (converted)
ENDPOINT NAME: k el (s⁻¹)
// units = s⁻¹; emit number, no label

Ask | Report measured k el; entry is O[C@H](CNCC1CC1)[C@H](Cc1ccccc1)NC1c2ccccc2-c2ccccc21
Reply | 7.5e-05

====

EXPERIMENT SUMMARY: Cell viability, PrestoBlue (immunotoxicity)
Type: cell-based
CONDITION DESCRIPTION: mouse; BV-2, 1 µM, 24 h; read-out: viability, immuntoxicity X [%]
Protocol: The mouse microglial cells (BV-2) were cultured using standard procedures. […] Stock solutions were prepared in the concentration of 10 mM for test and reference compounds. […] Cell viability was measured after 24 hours of incubation with tested cell line. Cell viability was evaluated using the Presto Blue reagent (Thermo Fisher), according to the manufacturer procedures. […] Viability values were calculated as a percentage of live cells with respect to the control sample (DMSO). […] IC 50 was determined by […]
ENDPOINT NAME: viability at 24 h, 1 µM (%)
Field: numeric (%). Do not append units.

Ask | Please look at this molecule and report its viability at 24 h, 1 µM: O[C@H](CNCC1CC1)[C@H](Cc1ccccc1)NC1c2ccccc2-c2ccccc21 [Compound 6]
Reply | 103

====

Tested on: mouse microglial cells SIM-A9
EXPERIMENT SUMMARY: MTT cell viability assay, SIM-A9
Type: cell-based
CONDITION DESCRIPTION: Mus musculus, SIM-A9, 24 h; read-out: IC50 (MTT) ± SEM
ENDPOINT NAME: pIC50
Conceptually, pIC50 converts a concentration in mol/L into minus its log10.

Ask | Give a short answer stating reported pIC50 for O[C@H](CNCC1CC1)[C@H](Cc1ccccc1)NC1c2ccccc2-c2ccccc21 .
Reply | 5.19

====

EXPERIMENT SUMMARY: Cell viability, PrestoBlue (immunotoxicity)
Type: cell-based
CONDITION DESCRIPTION: mouse; BV-2, 0.1 µM, 24 h; read-out: viability, immuntoxicity X [%]
ENDPOINT NAME: viability at 24 h, 0.1 µM (%)
Entry rule: numbers only, all in %.

Ask | Output measured viability at 24 h, 0.1 µM for this item: O[C@H](CNCC1CC1)[C@H](Cc1ccccc1)NC1c2ccccc2-c2ccccc21 [Compound 6]
Reply | 102
